# System: wheat germ agglutinin (Triticum aestivum), Alexa647-labelled
# ASSAY EXPLANATION: wheat germ agglutinin binders on compound microarrays, profiling panel, artefact control for SMM control-protein annotation, biochemical, small-molecule microarray, 635/667 nm fluorescence (AID 1140);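 further: score merges 667 nm feature emission with signal to noise over triplicate slides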
# CONDITION SET: WGA-A647 binding, 635 nm fluorescence, higher = more signal
Kindly note that classification relies on composite z-score with these boundaries: label 0 = under 0.1, label 1 = from 0.1 up to 0.6, label 2 = 0.6 and over

Categorize the following entry: Cc1c(NC(=O)CC#N)c(=O)n(-c2ccccc2)n1C label 1

Categorize the following entry: [N-]=[N+]=NCc1ccccc1[C@@H]1OC(c2ccc(OCCCO)cc2)=N[C@]1(Cc1ccccc1)C(=O)N1CCCCC1 label 2

Categorize the following entry: CCCCCCCCCCC(O)C1C=CC2C(=O)N(Cc3ccccc3)C(=O)C2N1n1cnnc1 (configuration not stated) label 1

Categorize the following entry: Cc1ccc(S[C@]2(C(=O)NC3CC3)CC(=O)N(Cc3ccccc3)[C@@H]2c2ccc(CO)cc2)cc1 label 1

Categorize the following entry: CCCCC=C[C@@H](NC(=O)c1cccs1)c1ccccc1 label 2

Categorize the following entry: CCOc1cc(C(O)C2C=CC3C(=O)N(c4ccccc4)C(=O)C3N2Nc2ccc([N+](=O)[O-])cc2)ccc1O (configuration not stated) label 1

Categorize the following entry: CN(C)CCCCNC(=O)[C@H]1C[C@H]2C(=O)N[C@@H](Cc3ccccc3)C(=O)N2[C@H]1c1ccc(O)cc1 label 2

Categorize the following entry: [N-]=[N+]=NCc1ccccc1[C@@H]1OC(c2ccc(OCCCO)cc2)=N[C@]1(Cc1ccccc1N=[N+]=[N-])C(=O)NCc1ccccc1 label 1

Categorize the following entry: CC(C)C(=C=CC[C@H](O)c1cccc(OCCO)c1)C[C@H](O)COCc1ccccc1 label 0

Categorize the following entry: CC(C)N1CC=CC23O[C@@H]4C=CCOC(=O)[C@@H]4[C@H]2C(=O)N(CCO)[C@@H]3C1=O (some centres not stated) label 0

Categorize the following entry: COc1c(C)cc(-c2cc3c(c(-c4ccc(Oc5ccccc5)cc4)n2)[Si](C(C)C)(C(C)C)OC3)cc1C label 0

Categorize the following entry: O=C1C[C@]2(c3ccc([N+](=O)[O-])cc3)C(=O)N(CC(F)(F)F)c3cc(CO)ccc3[C@H]2N1CC12CC3CC(CC(C3)C1)C2 label 1

Categorize the following entry: CC(C)(C)OC(=O)CC[C@]1(C(=O)N2CCCCC2)N=C(c2ccc(OCCCO)cc2)O[C@H]1c1ccccc1N=[N+]=[N-] label 2

Categorize the following entry: COC(=O)c1ccc(C(O)C2C=CC3C(=O)N(c4ccccc4)C(=O)C3N2Nc2ccc(C#N)cc2)o1 (configuration not stated) label 1

Categorize the following entry: COc1ccc([Si](C)(C)[C@@H]2[C@@H](CC(=O)N(CCO)Cc3ccccc3)O[C@]3(C(=O)N(C)c4ccccc43)[C@H]2C)cc1 label 2

Categorize the following entry: COc1cc(CO)ccc1OC(C)=O label 1

* * *

# ASSAY EXPLANATION: basal RPMI8226 viability, no added stimulus, profiling panel, cell-based, calcein-AM fluorescence, 48 h, PK04 Diversity Set (AID 1166);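 further: cells grown under basal conditions without added stimulus; test concentration not given here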
# CONDITION SET: RPMI8226 myeloma viability, higher = more signal
MEASURED QUANTITY: z-score
Returns: the value as a bare number; no unit string appended.

Provide z-score value for the following molecule: COc1cc2c(cc1OC)CN(C(=O)[C@@H]1[C@H]3C(=O)O[C@H](c4ccccc4)[C@H](c4ccccc4)N3[C@H](c3ccccc3OCCO)[C@@]13C(=O)Nc1ccc(C#CCNC(N)=O)cc13)CC2 0.625

Provide z-score value for the following molecule: Cc1ccc(S[C@]2(C(=O)NCc3ccccc3)CC(=O)N(Cc3ccccc3Cl)[C@@H]2c2ccc(CO)cc2I)cc1 -1.65

Provide z-score value for the following molecule: O=C1OCCC=C[C@H]2OC34C=CCN(c5ccc6ccccc6c5)C(=O)[C@H]3N(CCCCCO)C(=O)[C@@H]4C12 (stereo partly drawn) 0.0492

* * *

# ASSAY EXPLANATION: osmotic lysis modulators in infected erythrocytes, primary screen, PSAC antagonist project, cell-based, P. falciparum Indochina, OD700, 3 h (AID 1156)
# CONDITION SET: higher = more signal, called active from +8 up or from −8 down
Calls of active or inactive are those of the source.
MEASURED QUANTITY: z-score

Provide z-score value for the following compound: CN(C)CCCCCCNC(=O)[C@H]1C[C@H]2C(=O)N[C@@H](CCCCN)C(=O)N2[C@H]1c1ccc(O)cc1 -0.844 (inactive)

Provide z-score value for the following compound: CC(C)C(=C=CC[C@@H](O)c1ccccc1OCCO)C[C@@H](O)c1ccccn1 0.611 (inactive)

Provide z-score value for the following compound: CS(=O)(=O)CCOC(=O)C1=CC(CCCO)=CC(c2cccs2)N(Cc2cc3c(cc2Br)OCO3)C=C1C(=O)OCCS(C)(=O)=O (centres undefined) 1.85 (inactive)

Provide z-score value for the following compound: COc1ccc(C(O)C2C=CC3C(=O)NC(=O)C3N2Nc2ccccn2)cc1OCc1ccccc1 (centres undefined) 0.479 (inactive)

* * *

# ASSAY EXPLANATION: P. aeruginosa biofilm formation inhibitors, primary screen, PAO1 strain, BacTiter-Glo luminescence, LB-PBS (AID 1144)
# CONDITION SET: 12 h, higher = more signal
Assign z-score to each entry below.
Returns: the value as a bare number; no unit string appended.

Provide z-score value for the following molecule: O=C1OCCC/C=C\[C@H]2OC34C=CCN(Cn5nnc6ccccc65)C(=O)[C@H]3N(CCCCCO)C(=O)[C@@H]4C12 (some centres undefined) -0.477

Provide z-score value for the following molecule: CC(C)NC(=O)[C@@H]1c2ccccc2C(=O)N(Cc2ccccc2)[C@H]1c1ccc(CO)cc1 -0.0818

Provide z-score value for the following molecule: COCCOC(=O)N1C(=O)[C@@]2(c3ccccc31)[C@H](C(=O)Nc1nc3ccccc3s1)[C@H]1C(=O)O[C@H](c3ccccc3)[C@H](c3ccccc3)N1[C@@H]2c1ccc(OCCO)cc1 -0.706

Provide z-score value for the following molecule: COCCOC(=O)N1C(=O)[C@@]2(c3cc(C#CCNC(N)=O)ccc31)[C@H](c1ccccc1OCCO)N1[C@H](c3ccccc3)[C@H](c3ccccc3)OC(=O)[C@H]1[C@@H]2C(N)=O 0.287

* * *

# ASSAY EXPLANATION: A549 cell viability effects, profiling panel, calcein-AM fluorescence, 48 h, basal (AID 1162); further: test concentration not given here
# CONDITION SET: higher = more signal
Values of z-score greater than or equal to -0.3 map to True; values below map to False.

Does z-score meet or surpass -0.3 for COC(=O)[C@@]1(Cc2ccc(OC)cc2)[C@H]2c3cc(C(=O)N4CCCC4)n(Cc4ccccn4)c3C[C@H]2CN1C(=O)c1ccccc1 ? False

Does z-score meet or surpass -0.3 for COCCCNC(=O)[C@@]1(CCC(=O)OC(C)(C)C)N=C(c2ccc(OCCCO)cc2)O[C@H]1c1ccccc1CN=[N+]=[N-] ? True

Does z-score meet or surpass -0.3 for Cc1ccc(F)cc1S(=O)(=O)N[C@@H]1CCN(Cc2ccc(-c3ccccc3)cc2)C1 ? False

Does z-score meet or surpass -0.3 for C=CC(COC(C)=O)NS(=O)(=O)c1ccc(Br)cc1 (stereo not drawn) ? True

Does z-score meet or surpass -0.3 for O=C(CS)NCCCCCCNC(=O)[C@H]1C[C@H]2C(=O)N3CCC[C@H]3C(=O)N2[C@H]1c1cccc(OCCO)c1 ? False

Does z-score meet or surpass -0.3 for C=CC[C@@H](OC(=O)Nc1ccc(OC)cc1)c1ccc(O)c2ccccc12 ? True

Does z-score meet or surpass -0.3 for COC(=O)c1c(CC[C@@H](CO)NC(=O)N[C@@H](Cc2ccccc2)Cn2cc(C3(O)CCCCC3)nn2)oc(C(C)=O)c1C(=O)OC ? True

Does z-score meet or surpass -0.3 for CCCCC=C[C@@H](NC(=O)c1cccs1)c1ccccc1 ? False

* * *

# ASSAY EXPLANATION: small-molecule binders of probe aInhba, primary screen, biochemical, small-molecule microarray, 635/667 nm fluorescence (AID 1148);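 further: score merges 667nm spot fluorescence with signal-to-noise for antibody binding to printed compounds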
# CONDITION SET: higher = more signal
Assign composite z-score to each entry below.
Returns: the value as a bare number; no unit string appended.

Provide composite z-score value for the following compound: Cc1ccc(F)cc1S(=O)(=O)N[C@@H]1CCN(Cc2ccc(-c3ccccc3)cc2)C1 -0.128

Provide composite z-score value for the following compound: CC(C)N1C(=O)c2ccccc2[C@@H](C(=O)NCCCN(C)C)[C@@H]1c1ccc(CO)cc1 0.0633

Provide composite z-score value for the following compound: CCOC(=O)C1=CC[C@@H](c2ccccc2)N(S(=O)(=O)c2ccc(C)cc2)[C@H]1C(=O)OCC 0.421

Provide composite z-score value for the following compound: COc1ccc(NN2C(C(O)c3ccc(OC)c(OCc4ccccc4)c3)C=CC3C(=O)N(C4CCCCC4)C(=O)C32)cc1 (stereo not given) 0.0769

Provide composite z-score value for the following compound: Cc1ccc(S[C@]2(C(=O)NCc3ccccc3)CC(=O)N(Cc3ccccc3)[C@@H]2c2ccc(CO)cc2)cc1 -0.0719

Provide composite z-score value for the following compound: C=CCC(OC(C)=O)[C@@H]1[C@@H](N(Cc2cccc3ccccc23)C(=O)c2cccc3ccccc23)c2cc(OCCCO)ccc2N1C(=O)c1ccc2ccccc2n1 (stereo not given in full) -0.0791

Provide composite z-score value for the following compound: COc1ccc([Si](C)(C)[C@@H]2[C@@H](CC(=O)N(CCO)Cc3ccccc3)O[C@]3(C(=O)N(C)c4ccccc43)[C@H]2C)cc1 0.218

Provide composite z-score value for the following compound: [N-]=[N+]=NCc1ccccc1C[C@@]1(C(=O)NCC(O)CO)N=C(c2ccc(OCCCO)cc2)O[C@@H]1c1ccccc1CN=[N+]=[N-] (stereo not given in full) 0.533

Provide composite z-score value for the following compound: COCCOC(=O)N1C(=O)[C@@]2(c3cc(C#CC4=CCCCC4)ccc31)[C@H](C(=O)N1CCc3cc(OC)c(OC)cc3C1)[C@H]1C(=O)O[C@H](c3ccccc3)[C@H](c3ccccc3)N1[C@@H]2c1ccccc1OCCO 0.0939

Provide composite z-score value for the following compound: COc1ccc([Si](C)(C)[C@@H]2[C@@H](CC(=O)N3CCC[C@H]3CO)O[C@]3(C(=O)N(C)c4c(Br)cc(C)cc43)[C@H]2C)cc1 -0.103

Provide composite z-score value for the following compound: O=C(O)[C@H]1C[C@H]2C(=O)NCC(=O)N2[C@H]1c1ccc(O)cc1 -0.168

Provide composite z-score value for the following compound: CC(C)C[C@@H]1NC(=O)[C@@H]2C[C@H](C(=O)NCCCCCC[N+](C)(C)C)[C@H](c3ccc(O)cc3)N2C1=O -0.0448

Provide composite z-score value for the following compound: COc1c(C)cc(-c2cc3c(c(-c4ccc(Oc5ccccc5)cc4)n2)[Si](C(C)C)(C(C)C)OC3)cc1C 0.127

Provide composite z-score value for the following compound: CC(C)NC(=O)[C@@H]1c2ccccc2C(=O)N(Cc2ccccc2)[C@H]1c1ccc(CO)cc1 0.0345

Provide composite z-score value for the following compound: CO[C@H]1O[C@H](CO)[C@@H](OC(=O)Nc2ccc(Oc3ccccc3)cc2)[C@H](OC(=O)Nc2ccccc2)[C@H]1OC(=O)Nc1ccccc1 0.167

The reported measurements were obtained from PubChem BioAssay.
